Target: T1, Cynomolgus monkey BCMA-Fc (cynomolgus monkey, UniProt A0A2K5UD97 1-53)
T1 construct: also called BCMA from cynomolgus monkey (mobile phase); not shown: Fc part
T1 sequence (A0A2K5UD97 entry or part of it): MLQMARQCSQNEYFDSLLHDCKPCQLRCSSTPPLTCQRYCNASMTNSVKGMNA
Assay: BLI (ForteBio Octet), IgG captured on AHC probe, antigen in solution, avid
measurement.label: pKd
Just so you know, pKd here is -log10 of the concentration in molar units; reply with that number alone.

Would you kindly share the measured pKd for antibody ADI-38491 (antibody, V domains shown) VH: QLQLQESGPGLVKPSETLSLTCTVSGGSIVSSSYYWTWIRQPPGKGLEWIGSISIAGSTYYNPSLKSRVTISVDTSKNQFSLKLSSVTAADTAVYYCARDRGDTILDVWGQGTMVTVSS VL: DIQMTQSPSSLSASVGDRVTITCRASQSISRYLNWYQQKPGKAPKLLIYAASSLQSGVPSRFSGSGSGTDFTLTISSLQPEDFATYYCQQKYFDITFGGGTKVEIK ? 8.90

Also antibody ADI-38497 (antibody, V domains shown) VH: QLQLQESGPGLVKPSETLSLTCTVSGGSIVSSSYYWTWIRQPPGKGLEWIGSISIAGSTYYNPSLKSRVTISVDTSKNQFSLKLSSVTAADTAVYYCARDRGDQILDVWSQGTMVTVSS VL: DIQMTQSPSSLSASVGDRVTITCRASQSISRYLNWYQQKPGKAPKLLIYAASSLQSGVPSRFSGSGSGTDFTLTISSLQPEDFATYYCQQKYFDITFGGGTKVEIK ? 9.22

Also anti-BCMA parent antibody ADI-34861 (antibody, V domains shown, Tested as IgG (captured by anti-human Fc probe)) VH: QLQLQESGPGLVKPSETLSLTCTVSGGSISSSSYYWGWIRQPPGKGLEWIGSISYSGSTYYNPSLKSRVTISVDTSKNQFSLKLSSVTAADTAVYYCARDRGDTILDVWGQGTMVTVSS VL: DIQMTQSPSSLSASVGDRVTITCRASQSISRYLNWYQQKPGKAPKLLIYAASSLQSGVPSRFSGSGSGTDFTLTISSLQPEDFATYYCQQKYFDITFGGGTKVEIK ? 8.68

Also antibody ADI-38484 (antibody, V domains shown) VH: QVQLVQSGAEVKKPGSSVKVSCKASGGTFSNDVISWVRQAPGQGLEWMGVIIPIFGIANYAQKFQGRVTITADESTSTAYMELSSLRSEDTAVYYCARGRGYYSSWLHDIWGQGTMVTVSS VL: DIQMTQSPSSLSASVGDRVTITCQASQDITNYLNWYQQKPGKAPKLLIYDASNLETGVPSRFSGSGSGTDFTFTISSLQPEDIATYYCQQAFDLITFGGGTKVEIK ? 8.97
